- System: HepG2 cell line
- assay text: Cytotoxic activity against human tumor cells line (HepG2)
- Assay type: cell-based
measurement type: IC50
Write the numeric value and follow it with the unit.

{"molecule": "C=C1CC(c2ccc(OC(=O)C=Cc3ccc(O)c(OC)c3)cc2)OC1=O (stereo not drawn)", "IC50": "27.3 µM"}

Hi there! I need IC50 for each item below, if you can.
1. C=C1CC(c2ccc(OC(=O)c3ccccc3)cc2)OC1=O (stereo not drawn)
2. C=C1CC(c2ccccc2OCC)OC1=O (stereo not drawn)

Key:
5.3 µM
38.4 µM

----------
measurement type: melting point

A selection of reference data follows.
{"compound": "C=C1CC(c2ccccc2OC(=O)c2ccccc2)OC1=O (stereo not shown)", "melting point": "166.3 to 167 °C"}
{"compound": "C=C1CC(c2ccc(O)cc2)OC1=O (stereo not shown)", "melting point": "79 to 81 °C"}
{"compound": "C=C1CC(c2cccc(OC(=O)c3ccc(C)cc3)c2)OC1=O (stereo not shown)", "melting point": "168.5 to 168.9 °C"}

// next entry
Exercise: Query (compound): C=C1CC(c2cccc(OC(=O)c3ccc(Cl)cc3)c2)OC1=O (stereo not shown) ; field requested: melting point
Key: 209.8 to 210.5 °C
